For each of the compounds below, state its EC50.
- Assay Summary: inhibitors of intracellular T. cruzi replication, confirmation, NIH3T3 host cells, beta-gal luminescence (AID 2044);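 further: intracellular parasites grown in NIH/3T3 mouse fibroblasts as host cells; luminescent beta-galactosidase reporter signal from transgenic T. cruzi replicating inside host cells; inhibitors lower the luminescence signal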
- Assay type: functional, cell-based
The source made the active and inactive calls. No stated cut-off is given here; in the data, actives have a measured EC50 and inactives only a lower limit.

Query :: Could you tell me which EC50 is on file for Cc1ccc(C#CC[N+](C)(C)CC#Cc2ccccc2)cc1 ?
Result :: 1920 nM (active)

Query :: And what about the compound COc1cc(C(=O)Oc2ccccc2/C=N/NC(=O)c2ccc(Cl)cc2)cc(OC)c1OC ?
Result :: 1310 nM (active)

Query :: Same question, Nc1nc(-c2ccccn2)nc(N)c1Cc1ccc(Cl)cc1Cl this time
Result :: 1260 nM (active)

Query :: What about O=C(c1ccc(Cl)cc1)C1CCCN(Cc2cccn2-c2cccnc2)C1 (stereo unspecified) ?
Result :: 2580 nM (active)

Query :: Ok, now COc1ccc(N(CC(=O)NCCC2=CCCCC2)S(=O)(=O)c2ccc(C)cc2)cc1
Result :: 2310 nM (active)

Query :: // same read-out, input: CN(C)CCCN(C(=O)c1ccc2c(c1)CCCC2)c1nc2c(F)cccc2s1
Result :: 164 nM (active)

Query :: CCC(=O)Nc1ccc(C(=O)OCc2ccccc2Cl)cc1 ?
Result :: 815 nM (active)

Query :: Also Cc1ccc(Cn2ncc3c(N4CCN(c5ccccc5C)CC4)ncnc32)cc1 , if possible.
Result :: 1600 nM (active)

Query :: Entry to check: CN1CCN(NC(=O)Nc2cccc(Cl)c2Cl)CC1
Result :: 184 nM (active)

Query :: Please do the same for Cc1ccc(C)c(-c2nn(-c3cc(N4CCN(CCO)CC4)ccc3[N+](=O)[O-])c(=O)c3ccccc23)c1 as well.
Result :: 2230 nM (active)

Query :: Also check CCN(CC)CCCNC1=C(Cl)C(=O)c2ccccc2C1=O
Result :: 987 nM (active)

* * *

- Measurement Target: Protein RecA (Mycobacterium tuberculosis, UniProt P9WHJ3)
- Assay Summary: Fluorescence Cell-Free Homogeneous Dose Retest to Identify Inhibitors of RecA-Intein Splicing Activity. [Related pubchem assays (depositor defined):AID2097, AID2223, AID489010, AID492950]
- Assay type: functional
Active and inactive are the calls of the source. Cut-off read from the data, not from the text of the source: actives have a measured EC50 and inactives only a lower limit.
Can you tell me EC50 for the items I'm about to list?

Query :: Consider the molecule O=C(Nc1ncc([N+](=O)[O-])s1)c1ccc2c(c1)OCO2 and give its measured EC50.
Result :: 16.5 µM (active)

Query :: Follow-up item: CCCCCC(=O)O[C@]1(C(C)=O)CC[C@H]2[C@@H]3CCC4=CC(=O)CC[C@]4(C)[C@H]3CC[C@@]21C [HYDROXYPROGESTERONE CAPROATE]
Result :: 4.88 µM (active)

Query :: Another molecule to check: CC1(C)CC(=O)C(C2(O)C(=O)NC(=O)NC2=O)=C(O)C1
Result :: 2.23 µM (active)

Query :: And the next one, C/C(CC(=O)Nc1ccc(F)cc1F)=N\NC(=O)C(=O)N1CCCCC1 ?
Result :: 1.8 µM (active)

Query :: Can you check N=C(N)SCc1cn(-c2ccccc2)nc1-c1ccc(Br)cc1 next?
Result :: 11 µM (active)

Query :: Same for Cc1nn(-c2ccccc2)c2c1C(c1ccncc1)C(C#N)=C(N)O2 (centres undefined)
Result :: 3.05 µM (active)

Query :: Would you kindly repeat that for O=C(CCCN1C(=O)/C(=C\c2ccccc2)SC1=S)Nc1ccc(O)cc1 ?
Result :: 27.8 µM (active)

Query :: Entry COc1cc(C2(c3ccc(O)c(OC)c3)C(=O)Nc3c(C)cc(Br)cc32)ccc1O please
Result :: 14.4 µM (active)

Query :: And the next one, COc1ccccc1/C=C/C1(C(=O)NC2CCCC2)CC(=O)N1c1ccc(F)cc1 (centres undefined) ?
Result :: 2.82 µM (active)
